All figures here come from patent US20150299125A1.

# EXPERIMENTAL_DETAILS: Conversion of prodrug to parent in in vitro biorelevant gastrointestinal tract media
# Assay type: in vitro ADME
# MEASUREMENT_CONTEXT: FaSSIF, 37° C., 5 h
For each record, write down the corresponding Conversion in FaSSIF, time.

The recorded Conversion in FaSSIF, time for `Cc1cc(Nc2cc(C(F)F)ccn2)nc(-c2ccc([C@](C)(O)[C@H]3CC[C@H](C(=O)Oc4ccc(C#N)cc4)CC3)nc2)c1` is 0%, 5 h

`CCOCCOC(=O)OCOC(=O)[C@H]1CC[C@H]([C@@](C)(O)c2ccc(-c3cc(C)cc(Nc4cc(C(F)F)ccn4)n3)cn2)CC1` yielded Conversion in FaSSIF, time of 0%, 5 h

Conversion in FaSSIF, time recorded for this molecule, `Cc1cc(Nc2cc(C(F)F)ccn2)nc(-c2ccc([C@](C)(O)[C@H]3CC[C@H](C(=O)OCOP(=O)(O)O)CC3)nc2)c1` , is 20%, 5 h

The molecule `Cc1cc(Nc2cc(C(F)F)ccn2)nc(-c2ccc([C@](C)(O)[C@H]3CC[C@H](C(=O)OCCOP(=O)(O)O)CC3)nc2)c1` showed Conversion in FaSSIF, time equal to 0%, 5 h
